Test: Spectrophotometric determination of pKa values
Assay type: physicochemical
Settings: 298 K, 10 mM potassium phosphate, 200 mM KCl, spectrophotometry
Could you please report measured pKa for the items listed next?
Answers are plain numbers.

Take a look at these entries with their results.
Chemical Structure: CC(=O)Nc1ncc(O)cn1
Assay Endpoint: pKa
Experimental Result: 5.89
//
Chemical Structure: CN(C)c1ccc(O)cn1
Assay Endpoint: pKa
Experimental Result: 9.27
//
Chemical Structure: CC(=O)Nc1ccc(O)cn1
Assay Endpoint: pKa
Experimental Result: 8.28

Continue with the next molecule.
Could you please provide reported pKa for CN(C)c1ncc(O)cn1 ? Thanks!
8.18
